system: Mycobacterium tuberculosis; assay: Antimycobacterial activity against Mycobacterium tuberculosis H37Rv ATCC 25618 after 10 to 14 days by microplate alamar blue assay; type: functional
readout type: MIC (µg/mL)
Quick note: give the figure in µg/mL, leave out the unit.

Below: 5 compounds and their reported MIC.
compound	readout unit	MIC
c1ccc(CC2CCN(CC3CCN(CC45CC6CC(CC(C6)C4)C5)CC3)CC2)cc1	µg/mL	10
OC1CCN(CC2CCN(CCOc3ccccc3)CC2)CC1	µg/mL	8
c1ccc(CC2CCN(CC3CCN(CC(c4ccccc4)c4ccccc4)CC3)CC2)cc1	µg/mL	11
OC1CCN(CC2CCN(CC(c3ccccc3)c3ccccc3)CC2)CC1	µg/mL	4
OC1CCN(CC2CCN(CC3CCCCCC3)CC2)CC1	µg/mL	14

Turning now to a further compound:
# returns recorded MIC (system: Mycobacterium tuberculosis) for CCC(CN1CCC(CN2CCC(O)CC2)CC1)c1ccccc1 (stereo unspecified)
8
